Molecular target: D(3) dopamine receptor (Homo sapiens) (UniProt P35462)
Sequence (P35462 whole entry, looked up): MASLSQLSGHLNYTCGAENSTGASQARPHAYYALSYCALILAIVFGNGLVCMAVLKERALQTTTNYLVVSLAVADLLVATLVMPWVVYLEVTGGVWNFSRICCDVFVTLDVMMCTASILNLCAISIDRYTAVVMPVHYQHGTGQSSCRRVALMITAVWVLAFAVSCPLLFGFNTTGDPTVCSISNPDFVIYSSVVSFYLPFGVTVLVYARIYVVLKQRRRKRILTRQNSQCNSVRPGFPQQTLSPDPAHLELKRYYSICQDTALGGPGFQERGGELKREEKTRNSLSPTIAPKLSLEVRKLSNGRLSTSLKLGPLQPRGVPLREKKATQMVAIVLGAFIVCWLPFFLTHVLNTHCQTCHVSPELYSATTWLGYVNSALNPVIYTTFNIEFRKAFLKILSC
Experiment: qHTS of D3 Dopamine Receptor Antagonist: qHTS
Details: D3R cells, DiscoveRx beta-arrestin luminescence, antagonist mode
In all, about 360,000 compounds went through this assay and about 9,100 (2.5%) were called active. Inconclusive results (about 4%) are left out. No stated cut-off is given here; in the data, active means max response below about -50%; inconclusive means no clear call, values can overlap the other calls; inactive means above that. The entries come from a sample that favours actives as a whole.
Would you mind answering with one of these outcomes? active, inactive

[in] # fetch the recorded call for COC(=O)c1sc(NC(=S)NC(=O)c2ccc(C)cc2)nc1C here
[out] inactive

[in] # fetch the recorded call for O=CNc1cc(-c2ccc(C(=O)N3CCOCC3)cc2)cn2c(-c3ccc(F)cc3)cnc12 here
[out] inactive

[in] # fetch the recorded call for COc1ccc(NC(=O)CN2C(=O)NC(C)(c3ccccc3)C2=O)cn1 (stereo not given) here
[out] inactive

[in] # fetch the recorded call for COc1cc(C)c(S(=O)(=O)N2CCOCC2)c(C)c1C here
[out] inactive

[in] # fetch the recorded call for COc1ccc(CC(N)c2csc(NC(=O)NC(c3ccccc3)c3ccccc3)n2)cc1 (stereo not given) here
[out] inactive

[in] # fetch the recorded call for CC(C)(C)C(=O)c1c(N)[nH]c(C(=O)c2ccccc2)c1-c1ccc(F)cc1 here
[out] inactive

[in] # fetch the recorded call for Clc1cccc(Cc2c(-c3cccc(Cl)c3)nc3ccc(Cl)cn23)c1 here
[out] inactive

[in] # fetch the recorded call for C[C@@H]1CN([C@@H](C)CO)C(=O)c2cc(NS(C)(=O)=O)ccc2O[C@@H](C)CCCCO[C@H]1CN(C)C(=O)Nc1ccc2c(c1)OCO2 here
[out] inactive

Further cases:
[in] # fetch the recorded call for O=C(c1ccc(-c2ccccc2)cc1)C1CCCN(C(=O)c2cncs2)C1 (stereo not given) here
[out] active

[in] # fetch the recorded call for OC(c1cc(Cl)cc(Cl)c1)c1ncc(-c2ccccc2C(F)(F)F)[nH]1 (stereo not given) here
[out] inactive

[in] # fetch the recorded call for COc1ccc(C(O)c2nc(-c3ccc(OC)nc3)cs2)cc1 (stereo not given) here
[out] inactive

[in] # fetch the recorded call for CC(=O)Nc1ccc(N2C(=O)C3C4CC(=O)C(c5ccccc54)C3C2=O)cc1 (stereo not given) here
[out] active

The measurements presented in this section are drawn from PubChem BioAssay AID652054.
